These data points were gathered from paper doi:10.1101/2025.10.14.682402v1.

# study_target: kinase domain of ULK1 (Homo sapiens)
# Sequence (O75385 1-283 limits assumed): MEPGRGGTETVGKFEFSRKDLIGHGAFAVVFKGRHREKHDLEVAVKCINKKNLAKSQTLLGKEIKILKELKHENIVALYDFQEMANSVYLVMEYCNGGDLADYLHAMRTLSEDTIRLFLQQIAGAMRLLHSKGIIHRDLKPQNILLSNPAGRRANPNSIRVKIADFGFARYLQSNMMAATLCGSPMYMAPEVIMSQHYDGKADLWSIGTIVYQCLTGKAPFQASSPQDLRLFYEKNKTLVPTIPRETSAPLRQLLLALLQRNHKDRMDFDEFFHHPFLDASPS
# assay_setup: binder
Note to self: class = bucket of ULK1 PTS (ºC), per range A (below 4 °C), range B (4 °C to below 10 °C), range C (10 °C or more)

**Query** Into which category would you place `CNC(=O)c1ccccc1Nc1nc(Nc2ccc3c(c2)CC(=O)N3)ncc1Cl` ?
**Result** range A

**Query** Into which category would you place `CNC(=O)c1ccccc1Nc1nc(Nc2ccc(N3CCOCC3)cc2OC)ncc1C(F)(F)F` ?
**Result** range B

**Query** Into which category would you place `CNC(=O)c1ccccc1Nc1nc(Nc2cc(N3CCOCC3)cc(N3CCOCC3)c2)ncc1Cl` ?
**Result** range C

**Query** Into which category would you place `CNC(=O)c1ccccc1Nc1nc(Nc2cc(N3CCOCC3)cc(N3CCOCC3)c2)ncc1Br` ?
**Result** range C

**Query** Into which category would you place `CNC(=O)c1ccccc1Nc1nc(Nc2ccc(N3CCOCC3)cc2OC)ncc1Cl` ?
**Result** range A

**Query** Into which category would you place `CNC(=O)c1ccccc1Nc1nc(Nc2cc(OC)ccc2C)ncc1Br` ?
**Result** range B

**Query** Into which category would you place `CNC(=O)c1ccccc1Nc1nc(Nc2cc(OC)c(OC)c(OC)c2)ncc1C(F)(F)F` ?
**Result** range C

**Query** Into which category would you place `CNC(=O)c1ccccc1Nc1nc(Nc2ccc3c(c2)CCC(=O)N3)ncc1Cl` ?
**Result** range A

**Query** Into which category would you place `CNC(=O)c1ccccc1Nc1nc(Nc2cc(OC)ccc2C)ncc1C(F)(F)F` ?
**Result** range B
